assaySummary: Plasma concentration in CD-IGS rat at 30 mg/kg, ip measured after 5 hrs
Assay type: ADME, organism-based
Set-up: dose 30 mg/kg, route intraperitoneal
Listing: concentration at 5 h of selected molecules
Just the number please, in nM, no unit attached.

CCCC[C@H]1CCN([C@@H](C)C(=O)N[C@@H](Cc2cc(F)cc(F)c2)[C@H](O)CNCc2cccc(OC)c2)C1=O :: 1600

In: So what does the record say about concentration at 5 h for CCCC[C@H]1CCN([C@@H](CCc2ccccc2)C(=O)N[C@@H](Cc2cc(F)cc(F)c2)[C@H](O)[C@H]2C[C@@H](OCCC)CN2)C1=O ?
Out: 4000

---

testedOn: Beta-secretase 1 (Homo sapiens, UniProt P56817)
Sequence (P56817 whole entry): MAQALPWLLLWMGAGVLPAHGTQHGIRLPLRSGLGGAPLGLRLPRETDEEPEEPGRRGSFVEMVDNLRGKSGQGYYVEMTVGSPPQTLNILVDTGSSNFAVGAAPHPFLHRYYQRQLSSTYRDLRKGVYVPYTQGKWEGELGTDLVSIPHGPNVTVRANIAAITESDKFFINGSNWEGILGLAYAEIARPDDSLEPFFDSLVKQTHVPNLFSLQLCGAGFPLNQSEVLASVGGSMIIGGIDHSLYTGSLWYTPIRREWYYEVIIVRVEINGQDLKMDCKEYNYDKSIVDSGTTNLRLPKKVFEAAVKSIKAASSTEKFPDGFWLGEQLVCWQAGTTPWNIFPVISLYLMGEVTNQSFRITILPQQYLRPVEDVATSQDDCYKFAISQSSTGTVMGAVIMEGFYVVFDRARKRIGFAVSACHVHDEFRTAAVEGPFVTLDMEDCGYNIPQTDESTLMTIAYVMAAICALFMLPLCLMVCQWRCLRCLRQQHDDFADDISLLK
assaySummary: Inhibition of BACE1 in human HEK293 cells expressing swedish mutant APP
Assay type: cell-based
Mark each entry Condition met if its IC50 sits below 300 nM, and Condition not met for all others.

// known answers, use as guide
CCCO[C@H]1CN[C@@H]([C@@H](O)[C@H](Cc2cc(F)cc(F)c2)NC(=O)[C@H](CCc2ccccc2)N2CC[C@](NC(C)=O)(C(C)CC)C2=O)C1 (stereo partly drawn) :: Condition met
CCC(C)[C@@]1(NC(C)=O)CCN([C@@H](CCc2ccccc2)C(=O)N[C@@H](Cc2cc(F)cc(F)c2)[C@H](O)[C@H]2C[C@@H](OCc3cccc(C#N)c3)CN2)C1=O (stereo partly drawn) :: Condition met
CC(C)C[C@H]1CCN([C@@H](C)C(=O)N[C@@H](Cc2cc(F)cc(F)c2)[C@H](O)[C@H]2C[C@@H](Oc3ccccn3)CN2)C1=O :: Condition not met
COc1cccc(CNC[C@@H](O)[C@H](Cc2cc(F)cc(F)c2)NC(=O)[C@H](C)N2CC[C@H](C(C)C)C2=O)c1 :: Condition met

In: Bench note: check whether CCC[C@@H](O)[C@H]1CCN([C@@H](C)C(=O)N[C@@H](Cc2cc(F)cc(F)c2)[C@H](O)CNCc2cccc(OC)c2)C1=O shows IC50 below 300 nM
Out: Condition met

In: And what about the molecule CCC[C@@H](O)[C@H]1CCN([C@@H](C)C(=O)N[C@@H](Cc2cc(F)cc(F)c2)[C@H](O)[C@H]2C[C@H](O)CN2)C1=O ?
Out: Condition not met

In: Note, next up: CCC(C)[C@@]1(NC(C)=O)CCN([C@@H](CCc2ccccc2)C(=O)N[C@@H](Cc2cc(F)cc(F)c2)[C@H](O)[C@H]2C[C@@H](N)CN2)C1=O (stereo partly drawn)
Out: Condition met

In: Next molecule up: COC[C@H]1CCN([C@@H](C)C(=O)N[C@@H](Cc2cc(F)cc(F)c2)[C@H](O)CNCc2cccc(OC)c2)C1=O
Out: Condition not met

In: And then COc1cccc(CNC[C@@H](O)[C@H](Cc2cc(F)cc(F)c2)NC(=O)[C@H](CCc2ccccc2)N2CC[C@H](CC(C)C)C2=O)c1 , what is it?
Out: Condition met

In: CCC(C)[C@@]1(NC(C)=O)CCN([C@@H](CCc2ccccc2)C(=O)N[C@@H](Cc2cc(F)cc(F)c2)[C@H](O)[C@H]2Cc3cccc(OC)c3CN2)C1=O (stereo partly drawn) , same question.
Out: Condition met

In: And what about the molecule CC(C)C[C@H]1CCN([C@@H](CCc2ccccc2)C(=O)N[C@@H](Cc2cc(F)cc(F)c2)[C@H](O)[C@H]2C[C@@H](Oc3ccccn3)CN2)C1=O ?
Out: Condition not met

In: Moving on to CCC(C)[C@@]1(NC(C)=O)CCN([C@@H](CCc2ccccc2)C(=O)N[C@@H](Cc2cc(F)cc(F)c2)[C@H](O)[C@H]2C[C@H](O)CN2)C1=O (stereo partly drawn)
Out: Condition met

In: Thanks! And COc1cccc(CNC[C@@H](O)[C@H](Cc2cc(F)cc(F)c2)NC(=O)[C@H](C)N2CC[C@@](CC3CC3)(NC(C)=O)C2=O)c1 ?
Out: Condition met

---

The entries below come with measured pIC50 values attached.
testedOn: Beta-secretase 1 (Homo sapiens, UniProt P56817)
assaySummary: Inhibition of BACE1 by HPLC method
# log scale: pIC50 equals minus log10 of the concentration in mol/L

CCC(C)[C@@]1(NC(C)=O)CCN([C@@H](C)C(=O)N[C@@H](Cc2cc(F)cc(F)c2)[C@H](O)[C@H]2C[C@H](O)CN2)C1=O (some centres not stated) :: 7.51

In: // query pIC50 value for entry CCCC[C@H]1CCN([C@@H](C)C(=O)N[C@@H](Cc2cc(F)cc(F)c2)[C@H](O)CNCc2cccc(OC)c2)C1=O
Out: 7.22

In: Then CCCO[C@H]1CN[C@@H]([C@@H](O)[C@H](Cc2cc(F)cc(F)c2)NC(=O)[C@H](C)N2CC[C@H](C(C)C)C2=O)C1 ?
Out: 6.80

In: Same question, CCC(C)[C@@]1(NC(C)=O)CCN([C@@H](CCc2ccccc2)C(=O)N[C@@H](Cc2cc(F)cc(F)c2)[C@H](O)[C@H]2C[C@@H](N)CN2)C1=O (some centres not stated) this time
Out: 7.47

In: // repeat for CCCO[C@H]1CN[C@@H]([C@@H](O)[C@H](Cc2cc(F)cc(F)c2)NC(=O)[C@H](CCc2ccccc2)N2CC[C@H]([C@H](O)CCC)C2=O)C1 and report
Out: 8.33

In: Can you handle CCCC[C@H]1CCN([C@@H](CCc2ccccc2)C(=O)N[C@@H](Cc2cc(F)cc(F)c2)[C@H](O)[C@H]2C[C@H](O)CN2)C1=O next?
Out: 6.96

In: Param item: CCCC[C@H]1CCN([C@@H](CCc2ccccc2)C(=O)N[C@@H](Cc2cc(F)cc(F)c2)[C@H](O)CNCc2cccc(OC)c2)C1=O
Out: 7.42

---

assaySummary: Fraction unbound in plasma of CD-IGS rat at 30 mg/kg, ip measured after 5 hrs
Assay type: ADME, organism-based
Set-up: dose 30 mg/kg, route intraperitoneal
measurementLabel: fraction unbound at 5 h
Answer using only a numeral; do not append any unit.

In: Report fraction unbound at 5 h for CCCC[C@H]1CCN([C@@H](C)C(=O)N[C@@H](Cc2cc(F)cc(F)c2)[C@H](O)CNCc2cccc(OC)c2)C1=O please.
Out: 0.029

---

assaySummary: Drug level in plasma of transgenic 2576 mouse at 30 mg/kg, sc measured after 5 hrs
Assay type: ADME, organism-based
Set-up: dose 30 mg/kg, route subcutaneous
measurementLabel: concentration at 5 h
For clarity, give the value followed by its unit.

In: Recorded concentration at 5 h for CCC(C)[C@@]1(NC(C)=O)CCN([C@@H](CCc2ccccc2)C(=O)N[C@@H](Cc2cc(F)cc(F)c2)[C@H](O)[C@H]2C[C@H](O)CN2)C1=O (stereo partly specified) , please?
Out: 780 nM

---

Tested on: P-glycoprotein
assaySummary: Efflux ratio of permeability across basolateral to apical side over apical to basolateral side in human Caco2 cells expressing p-glycoprotein
Type: ADME, cell-based
conditionsUsed: Caco-2
Overview of reported efflux ratio across a group of compounds:

Some compounds with known efflux ratio results, for comparison:
CCCO[C@H]1CN[C@@H]([C@@H](O)[C@H](Cc2cc(F)cc(F)c2)NC(=O)[C@H](CCc2ccccc2)N2CC[C@@](CC(C)C)(NC(C)=O)C2=O)C1 :: > 12
CCCC[C@H]1CCN([C@@H](C)C(=O)N[C@@H](Cc2cc(F)cc(F)c2)[C@H](O)[C@H]2C[C@@H](OCCC)CN2)C1=O :: > 17

Let's switch to this compound now.
In: Looking for the measured efflux ratio of CCCO[C@H]1CN[C@@H]([C@@H](O)[C@H](Cc2cc(F)cc(F)c2)NC(=O)[C@H](C)N2CC[C@H](CC(C)C)C2=O)C1 , can you help?
Out: 32

---

testedOn: Beta-secretase 1 (Homo sapiens, UniProt P56817)
assaySummary: Inhibition of BACE1 in human HEK293 cells expressing swedish mutant APP
Type: cell-based
Measured pIC50 of individual entries
Recall that pIC50 is obtained by taking minus log10 of the concentration measured in molar.

// known answers, use as guide
CCCO[C@H]1CN[C@@H]([C@@H](O)[C@H](Cc2cc(F)cc(F)c2)NC(=O)[C@H](CCc2ccccc2)N2CC[C@H](COC)C2=O)C1 :: 7.05
CCCC[C@H]1CCN([C@@H](C)C(=O)N[C@@H](Cc2cc(F)cc(F)c2)[C@H](O)[C@H]2C[C@H](O)CN2)C1=O :: 5.85
CCCC[C@H]1CCN([C@@H](CCc2ccccc2)C(=O)N[C@@H](Cc2cc(F)cc(F)c2)[C@H](O)[C@H]2C[C@@H](Oc3ccccn3)CN2)C1=O :: 6.44
CCCO[C@H]1CN[C@@H]([C@@H](O)[C@H](Cc2cc(F)cc(F)c2)NC(=O)[C@H](CCc2ccccc2)N2CC[C@@](CC(C)C)(NC(C)=O)C2=O)C1 :: 8.70
CCC(C)[C@@]1(NC(C)=O)CCN([C@@H](CCc2ccccc2)C(=O)N[C@@H](Cc2cc(F)cc(F)c2)[C@H](O)[C@H]2C[C@@H](Oc3ccccn3)CN2)C1=O (stereo partly drawn) :: 8.68
CCCC[C@H]1CCN([C@@H](CCc2ccccc2)C(=O)N[C@@H](Cc2cc(F)cc(F)c2)[C@H](O)CNCc2cccc(OC)c2)C1=O :: 6.46
CCCC[C@H]1CCN([C@@H](CCc2ccccc2)C(=O)N[C@@H](Cc2cc(F)cc(F)c2)[C@H](O)[C@H]2C[C@@H](O)CN2)C1=O :: 6.19
CCCC[C@H]1CCN([C@@H](C)C(=O)N[C@@H](Cc2cc(F)cc(F)c2)[C@H](O)[C@H]2Cc3ccccc3CN2)C1=O :: 6.14
CCC(C)[C@@]1(NC(C)=O)CCN([C@@H](CCc2ccccc2)C(=O)N[C@@H](Cc2cc(F)cc(F)c2)[C@H](O)[C@H]2C[C@@H](Oc3cccnc3)CN2)C1=O (stereo partly drawn) :: 8.60
CCC(C)[C@@]1(NC(C)=O)CCN([C@@H](CCc2ccccc2)C(=O)N[C@@H](Cc2cc(F)cc(F)c2)[C@H](O)[C@H]2C[C@H](N)CN2)C1=O (stereo partly drawn) :: 6.72

In: # pIC50 lookup, item CCCC[C@H]1CCN([C@@H](C)C(=O)N[C@@H](Cc2cc(F)cc(F)c2)[C@H](O)CNCc2cccc(OC)c2)C1=O
Out: 7.09

In: Would you kindly repeat that for CCCO[C@H]1CN[C@@H]([C@@H](O)[C@H](Cc2cc(F)cc(F)c2)NC(=O)[C@H](CCc2ccccc2)N2CC[C@H]([C@H](O)CCC)C2=O)C1 ?
Out: 7.32

In: Moving on to COc1cccc(CNC[C@@H](O)[C@H](Cc2cc(F)cc(F)c2)NC(=O)[C@H](CCc2ccccc2)N2CC[C@H](C(C)C)C2=O)c1
Out: 6.66
